- Experimental Protocol: calcium flux activation in mu-opioid HEK293 cells, confirmation, counter-screen for TRPC4 activator project, cell-based, HEK293 mu-opioid receptor line (AID 449723);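 note: counter screen cells carry the mu-opioid receptor alone and lack TRPC4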; for activation: reference of the scale not given here
- Stated Conditions: Fluo-4 calcium fluorescence, at 10 µM
Active and inactive are the calls of the source.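 Rule for the calls: active = hit in primary screen, with calcium signal over 5 SD above buffer well mean in both duplicates; inactive = the rest.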
Labels: active, inactive

> print(dat)
                                    molecule  assigned.label
 1  O=C(NC(=S)NNC(=O)[C@H]1C[C@@H]1c1ccccc1)c1cccc(F)c1          active
 2  COC(=O)C1=NN(C(=O)c2cccc(Br)c2)C(O)(c2ccc(Cl)cc2)C1 (centres undefined)        inactive
 3  O=c1c2c(-c3ccccc3)csc2ncn1/N=C/c1cccc([N+](=O)[O-])c1O        inactive
 4                  CCCCc1cc(O)c(CCCC)c(O)c1          active
 5     CN1CCC(CNC(=O)Nc2ccccc2)(c2ccccc2)CC1        inactive
 6  CSCCC(NS(=O)(=O)c1ccc2c(c1)c(=O)n(C)c(=O)n2C)C(=O)NC1CCN(Cc2ccccc2)CC1 (centres undefined)        inactive
 7  CCOC(=O)C1(CC2CC2)CCN(Cc2cn[nH]c2-c2ccccc2)CC1        inactive
 8  COc1ccc2nc(NS(=O)(=O)c3ccc(NC(C)=O)cc3)sc2c1        inactive
 9  CCOC(=O)C1(CCOc2ccccc2)CCN(Cc2cnc(C)s2)CC1        inactive
10  CN(C)CCCN(C(=O)c1ccc(S(=O)(=O)N2CCCCCC2)cc1)c1nc2ccc(F)cc2s1          active
11  CN(C)CCCN(C(=O)c1ccc(S(=O)(=O)N(C)Cc2ccccc2)cc1)c1nc2cc3c(cc2s1)OCO3        inactive
12  Cc1ccc(S(=O)(=O)Nc2cccc(C(=O)NCC(c3ccco3)N3CCCC3)c2)cc1F (centres undefined)        inactive
13  CCOC(=O)C1(CCOc2ccccc2)CCN(Cc2ccc(NC(C)=O)cc2)CC1        inactive
14       Cc1ccccc1Nc1nc(NCc2ccco2)c2ccccc2n1        inactive
15  COc1cccc(CC2(CO)CCCN(Cc3ccccc3-c3ccco3)C2)c1 (centres undefined)        inactive
16  OCC1(CC2CCCCO2)CCN(Cc2nc3ccccc3[nH]2)CC1 (centres undefined)        inactive
17                   Cc1cc(Br)ccc1OCCn1ccnc1        inactive
18  CN(C)C(CNC(=S)Nc1ccc(F)cc1)c1cccnc1 (centres undefined)        inactive
19  CCOC(=O)C1(Cc2cccc(F)c2)CCN(Cc2cnc(C)s2)CC1        inactive
20                     CN(C)CCCOc1cccc(Cl)c1        inactive
21  O=C(NCc1ccccc1)C1=C[C@H](c2ccc3c(c2)OCO3)C[C@H](OCc2ccc(CO)cc2)O1        inactive
22  O=C(NCCc1ccccn1)C(F)(F)C(F)(F)C(F)(F)C(F)(F)C(F)(F)C(F)F        inactive
23  COc1ccc(C(CNC(=O)C(C)c2ccc3cc(OC)ccc3c2)N(C)C)cc1 (centres undefined)        inactive
24  Cc1onc(-c2ccccc2)c1C(=O)NNC(=S)NC(=O)c1ccc(Br)cc1          active
25  CCN1CCN(c2ccc(S(=O)(=O)N3CCCCC3)cc2NC(=O)C(C)Oc2ccc(F)cc2)CC1 (centres undefined)        inactive
26  NC(=O)C1CCCN(CC(O)COCc2ccc(Cl)cc2)C1 (centres undefined)        inactive
27  Cc1ccc(Sc2cc(C(=O)NCCN(C)C)c3ccccc3n2)cc1        inactive
28  CC(C)(C)c1ccc(C(=O)NC(=S)NNC(=O)COc2ccccc2)cc1        inactive
29  CN(C)C(CNC(=S)Nc1cccc(Cl)c1)c1cccnc1 (centres undefined)        inactive
30  O=C(C1CCCN(Cc2ccccc2F)C1)N1CCc2ccccc2C1 (centres undefined)        inactive
31  CCCCCSc1nnc2c(n1)OC(c1cccn1C)N(C(C)=O)c1ccccc1-2 (centres undefined)        inactive
32  COc1ccc(C(=O)NC(=S)NNC(=O)c2cccc(C)c2)cc1          active
33  O=C(CCc1ccccc1)NNC(=S)NC(=O)c1ccc(Cl)cc1          active
34               Cc1cc(OCCCn2ccnc2)cc(C)c1Cl        inactive
35  CCCCC(=O)NNC(=S)NC(=O)C(c1ccccc1)c1ccccc1          active
36  COc1ccccc1N1CCN(C(c2cccs2)C(C)NC(=O)c2cccs2)CC1 (centres undefined)        inactive
37   CCCOc1ccc(C(=O)NNC(=S)NC(=O)c2cccs2)cc1          active
38  COc1ccc(C(CNC(=O)CN2C(=O)NC3(CCCC3)C2=O)N(C)C)cc1 (centres undefined)        inactive
39  CN(CCc1nc2ccc(Cl)cc2[nH]1)Cc1nc(CC2CC2)no1        inactive
40  COc1ccc(C(=O)NC(=S)NNC(=O)c2c(-c3ccccc3)noc2C)cc1OC        inactive
41  CN1CCCC(OC(=O)c2cc(Cl)cc(Cl)c2)C1 (centres undefined)        inactive
42                Cc1ccc(C)c(OCCCCn2ccnc2)c1        inactive
43  CC(C)(C)c1cc(CCC(=O)NNC(=S)NC(=O)c2ccccc2)cc(C(C)(C)C)c1O          active
44  Cc1ccc(COn2c(-c3ccc(Cl)cc3Cl)nc3ncccc32)cc1        inactive
